Please provide measured IC50 for the entries that follow.
# measurementTarget: ErbB2 V777L (Homo sapiens (Human), UniProt P04626, V777L)
# Sequence (P04626 23-1255 V777L): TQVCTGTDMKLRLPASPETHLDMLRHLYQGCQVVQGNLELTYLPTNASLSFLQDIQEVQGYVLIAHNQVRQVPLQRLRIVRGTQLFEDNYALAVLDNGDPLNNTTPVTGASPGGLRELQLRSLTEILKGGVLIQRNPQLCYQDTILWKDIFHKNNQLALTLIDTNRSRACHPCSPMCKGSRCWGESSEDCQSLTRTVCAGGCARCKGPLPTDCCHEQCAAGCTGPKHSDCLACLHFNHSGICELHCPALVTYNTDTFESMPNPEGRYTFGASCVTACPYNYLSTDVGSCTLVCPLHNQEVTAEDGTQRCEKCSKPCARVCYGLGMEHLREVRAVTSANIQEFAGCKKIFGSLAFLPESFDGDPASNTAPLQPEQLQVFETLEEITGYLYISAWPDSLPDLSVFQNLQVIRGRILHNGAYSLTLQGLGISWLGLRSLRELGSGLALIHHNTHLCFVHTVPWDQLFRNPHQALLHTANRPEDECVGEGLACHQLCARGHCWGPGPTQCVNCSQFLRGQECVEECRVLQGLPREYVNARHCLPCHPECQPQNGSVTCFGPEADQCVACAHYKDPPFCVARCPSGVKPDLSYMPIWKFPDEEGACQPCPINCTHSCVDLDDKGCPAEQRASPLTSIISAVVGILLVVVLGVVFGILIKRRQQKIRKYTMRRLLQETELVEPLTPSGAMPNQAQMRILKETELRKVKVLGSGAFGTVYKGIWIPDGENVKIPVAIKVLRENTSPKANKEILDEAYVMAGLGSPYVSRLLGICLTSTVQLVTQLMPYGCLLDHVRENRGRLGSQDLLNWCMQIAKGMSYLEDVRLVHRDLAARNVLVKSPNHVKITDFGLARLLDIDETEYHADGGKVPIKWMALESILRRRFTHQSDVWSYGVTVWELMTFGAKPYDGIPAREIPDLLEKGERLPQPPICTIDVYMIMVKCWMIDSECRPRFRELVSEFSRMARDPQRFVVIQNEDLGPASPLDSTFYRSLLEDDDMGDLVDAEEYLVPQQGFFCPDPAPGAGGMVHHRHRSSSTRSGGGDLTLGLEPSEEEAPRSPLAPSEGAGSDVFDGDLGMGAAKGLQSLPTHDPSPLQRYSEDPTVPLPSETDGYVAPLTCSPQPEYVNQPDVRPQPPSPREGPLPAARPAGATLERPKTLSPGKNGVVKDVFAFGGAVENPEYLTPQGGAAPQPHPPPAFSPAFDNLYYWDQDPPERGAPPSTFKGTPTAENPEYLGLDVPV
# experimentalProtocol: ErbB enzyme assay (CisBio HTRF-KinEASE-TK), ErbB2 V777L
# Format: biochemical

Record C=CC(=O)N1CCC(Sc2ncc3ncnc(Nc4ccc(Oc5ccc6c(c5)ncn6C)c(C)c4F)c3n2)CC1 , field IC50: 50 to 100 nM

Record C=CC(=O)N1C2CC1CN(c1ncc3ncnc(Nc4ccc(Oc5ccc6c(c5)nnn6C)c(C)c4)c3n1)C2 , field IC50: 50 to 100 nM

Record C=CC(=O)N1CCC(Oc2ncc3ncnc(Nc4ccc(Oc5ccn6ncnc6c5)c(C)c4)c3n2)C1 (stereo not shown) , field IC50: 100 to 500 nM

Record C=CC(=O)N1CCN(c2ncc3ncnc(Nc4ccc(Oc5ccc6c(c5)nnn6C)c(C)c4)c3n2)[C@@H]2CC[C@H]21 , field IC50: 100 to 500 nM
